- Measured target: Rac GTPase-activating protein 1 (Homo sapiens) (UniProt Q9H0H5)
- Sequence (Q9H0H5 whole entry, looked up): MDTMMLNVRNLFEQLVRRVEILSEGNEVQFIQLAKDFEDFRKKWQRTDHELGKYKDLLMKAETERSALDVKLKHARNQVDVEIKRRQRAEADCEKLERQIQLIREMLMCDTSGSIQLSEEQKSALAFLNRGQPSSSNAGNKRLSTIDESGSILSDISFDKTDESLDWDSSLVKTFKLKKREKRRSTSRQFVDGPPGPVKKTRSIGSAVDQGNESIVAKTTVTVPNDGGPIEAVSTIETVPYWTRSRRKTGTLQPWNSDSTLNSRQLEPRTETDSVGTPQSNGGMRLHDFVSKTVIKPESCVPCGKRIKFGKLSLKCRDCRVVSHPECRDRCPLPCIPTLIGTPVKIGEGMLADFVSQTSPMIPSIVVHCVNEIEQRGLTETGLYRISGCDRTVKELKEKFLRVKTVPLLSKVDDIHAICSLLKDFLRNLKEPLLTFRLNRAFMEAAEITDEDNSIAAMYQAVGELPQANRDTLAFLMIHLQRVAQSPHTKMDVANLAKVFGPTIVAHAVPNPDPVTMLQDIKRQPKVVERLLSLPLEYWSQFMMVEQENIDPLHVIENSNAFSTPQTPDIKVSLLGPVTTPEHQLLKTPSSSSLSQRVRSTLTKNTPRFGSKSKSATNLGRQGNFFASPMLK
- Measurement notes: blockers of MgcRacGAP-driven Rac1 GTP hydrolysis – biochemical, ADP Hunter fluorescence, primary and confirmatory, confirmation (AID 624330);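 further: fluorescence reports GDP produced by GAP-driven GTP hydrolysis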
- Test parameters: MgcRacGAP-stimulated Rac1 GTP hydrolysis, at 30 µM, active compounds read high, GST-tagged Rac1 F28L mutant substrate
Screen size: about 340,000 compounds; about 2,100 (0.62%) were called active. Only a sample is shown. Potency and affinity values are given separately.
Entries and their inhibition values follow.
Property label: inhibition (%)

>>> result_value("C/C(N)=C(/C#N)C(=O)COC(=O)C1CCN(S(=O)(=O)c2cccs2)CC1")
-1.72
>>> result_value("c1ccc2[nH]c(CCCCc3nc4ccccc4[nH]3)nc2c1")
7.39
>>> result_value("Cc1ccc2nc(SCC(=O)Nc3ccccc3F)nc(=O)n2c1")
3.36
>>> result_value("O=C(Cn1c(C(=O)NCCCN2CCOCC2)cc2sccc21)c1ccccc1")
29.1
>>> result_value("CC(NC(=O)c1ccccc1)C(=O)N/N=C/c1ccc(O)cc1 (stereo not given)")
27
>>> result_value("Cc1cc(C)n(-c2cccc(Cl)c2C#N)n1")
7.18
>>> result_value("CN1CCN(C(=O)CCC(=O)c2ccc(F)cc2)CC1")
7.21
>>> result_value("Cc1ccc(NC(=O)COC(=O)COc2cccc3c2OC(C)(C)C3)cc1S(=O)(=O)N1CCOCC1")
5.48
>>> result_value("CN(CCc1ccccn1)Cc1ccc(Cl)cc1Cl")
19.1
>>> result_value("O=C1C[C@@H](c2ccccc2)Oc2cc(O)cc(O)c21")
7.07
>>> result_value("CC1=NN(C(N)=S)C(=O)C1N=Nc1ccc(Cl)cc1 (stereo not given)")
13.3
>>> result_value("O=C(NCC1CCCO1)c1ccccc1 (stereo not given)")
-0.11
>>> result_value("COC(=O)C[C@@H]1C[C@H]2c3cc(N(C)C)ccc3O[C@H]2[C@H](CO)O1")
18.6
>>> result_value("CCOCCCNC(=O)C1CCCN(S(=O)(=O)c2ccc(-n3cnnn3)cc2)C1 (stereo not given)")
1.87
>>> result_value("Cc1ccc2nc(Cc3ccc(N)cc3)[nH]c2c1")
6.07

###

- Measured target: Rac GTPase-activating protein 1 (Homo sapiens)
- Measurement notes: blockers of MgcRacGAP-driven Rac1 GTP hydrolysis – biochemical, ADP Hunter fluorescence, primary and confirmatory, confirmation (AID 624330);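 further: fluorescence reports GDP produced by GAP-driven GTP hydrolysis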
- Test parameters: MgcRacGAP-stimulated Rac1 GTP hydrolysis, at 30 µM, active compounds read high, GST-tagged Rac1 F28L mutant substrate
In all, about 340,000 compounds went through this assay and about 2,100 (0.62%) were called active. Not all results are given here. Entries with a potency or affinity are not part of this list.
Property label: inhibition

>>> result_value("COc1cc(/C=N/NC(=O)c2cccc(NC(=O)c3ccccc3Cl)c2)ccc1O")
"28.3% (inactive)"
>>> result_value("Cc1ccc(CNC(=O)C2CCCC2)cc1")
"6.2% (inactive)"
>>> result_value("C=CCn1c(-c2ccc(Cl)cc2)cnc1SC(C)C(N)=O (configuration not stated)")
"13.8% (inactive)"
>>> result_value("COc1ccccc1/C=N/NC(=O)c1cccc(NC(=O)c2ccccc2C)c1")
"6.03% (inactive)"
>>> result_value("COc1ccc(C)cc1NC(=O)CNC(c1ccccc1)c1ccccc1")
"1.89% (inactive)"
>>> result_value("COc1cc(/C=C2\\NC(=S)N(C)C2=O)ccc1OCc1ccccc1F")
"-3.41% (inactive)"
>>> result_value("C=CCOc1ccc(/C=N/NC(=O)C(=O)Nc2ccccn2)cc1OC")
"-2.52% (inactive)"
>>> result_value("CCC(=O)Nc1ccc(NC(=O)c2ccc3c(c2)OCO3)cc1")
"11.5% (inactive)"
>>> result_value("Cc1cc(Cl)c(OCCCn2cncn2)c(Br)c1")
"13.1% (inactive)"
>>> result_value("N/C(COc1ccc(Cl)cc1Cl)=N\\O")
"7.42% (inactive)"
>>> result_value("Cn1sc2ccccc2c1=O")
"18% (inactive)"
>>> result_value("COc1ccc(-n2c(=O)c3ccccc3c3ccccc3c2=O)cc1")
"11.5% (inactive)"

###

- Measured target: Rac GTPase-activating protein 1 (Homo sapiens)
- Measurement notes: blockers of MgcRacGAP-driven Rac1 GTP hydrolysis – biochemical, ADP Hunter fluorescence, primary and confirmatory, confirmation (AID 624330);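 further: fluorescence reports GDP produced by GAP-driven GTP hydrolysis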
- Test parameters: MgcRacGAP-stimulated Rac1 GTP hydrolysis, at 30 µM, active compounds read high, GST-tagged Rac1 F28L mutant substrate
The campaign covered roughly 340,000 compounds. About 2,100 (0.62%) were called active. The list is a sample of the results. Measured potencies and affinities stand elsewhere.
Property label: inhibition (%)

>>> result_value("COC(=O)c1ccc(NC(=O)c2cn(-c3ccccc3)nc2-c2ccncc2)cc1")
-0.99
>>> result_value("COc1ccc(/C=N/n2c(C)nnc2C)c(OC)c1OC")
8.6
>>> result_value("COc1cccc(/C=N/n2c(-c3n[nH]c4c3CCC4)n[nH]c2=S)c1OC")
10.4
>>> result_value("COc1cc2oc(-c3ccc(O)cc3)cc(=O)c2c(O)c1OC")
18.1
>>> result_value("COc1ccc(OC)c(-c2csc(NC(=O)COC(=O)c3ccc(NC(=O)CC#N)cc3)n2)c1")
5.16
>>> result_value("COc1cc(/C=C(/C(=O)O)c2ccc(-c3ccccc3)cc2)cc(OC)c1OC")
7.82

###

- Measured target: Rac GTPase-activating protein 1 (Homo sapiens) (UniProt Q9H0H5)
- Measurement notes: blockers of MgcRacGAP-driven Rac1 GTP hydrolysis – biochemical, ADP Hunter fluorescence, primary and confirmatory, confirmation (AID 624330);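 further: fluorescence reports GDP produced by GAP-driven GTP hydrolysis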
- Test parameters: MgcRacGAP-stimulated Rac1 GTP hydrolysis, at 30 µM, active compounds read high, GST-tagged Rac1 F28L mutant substrate
About 2,100 (0.62%) of roughly 340,000 compounds were called active. Not all results are given here. Entries with a potency or affinity are not part of this list.
Property label: inhibition (%)

>>> result_value("CCc1cccc(NC(=O)CSc2nnc(Cc3ccc(OC)cc3)c(=O)[nH]2)c1")
6.26
>>> result_value("Cc1ccc(C)n1CCN1CCN(S(=O)(=O)c2ccc(F)cc2F)CC1")
4.22
>>> result_value("CC(C)c1ccc(OCC(=O)NCc2ccco2)cc1")
6.29
>>> result_value("O=C1C(=Cc2cccs2)C(=O)c2ccccc21")
4.2
>>> result_value("O=C1NC(=O)/C(=C/c2ccco2)N1")
11
>>> result_value("Nc1ccn(CCCN2CCN(C(=O)C3CC3)CC2)c(=O)n1")
15.1
>>> result_value("CCOc1ccc(CCNC(=O)COC(=O)c2cc(OC)c(OC)cc2[N+](=O)[O-])cc1OCC")
-1.41
>>> result_value("O=C1c2ccccc2OCOc2ccccc21")
2.81
>>> result_value("Cc1ccc2oc(=O)n(CCOc3ccccc3C)c2c1")
0.34
>>> result_value("CC1=NNC(=O)C1CC(=O)N/N=C/C(C)=C/c1ccccc1 (stereo not drawn)")
13.2
>>> result_value("COc1ccc(/C=C/C(=O)OCC(=O)Nc2ccc3c(c2)OCO3)cc1")
10.3
>>> result_value("COc1cc(OC)c(OC)cc1CN1CCN(C(=O)CC(C)C)CC1")
12.8
>>> result_value("O=C(c1ccccc1-c1ncc[nH]1)N1CCCC(Nc2ccc(F)cc2)C1 (stereo not drawn)")
2.49

###

- Measured target: Rac GTPase-activating protein 1 (Homo sapiens) (UniProt Q9H0H5)
- Measurement notes: blockers of MgcRacGAP-driven Rac1 GTP hydrolysis – biochemical, ADP Hunter fluorescence, primary and confirmatory, confirmation (AID 624330);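 further: fluorescence reports GDP produced by GAP-driven GTP hydrolysis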
- Test parameters: MgcRacGAP-stimulated Rac1 GTP hydrolysis, at 30 µM, active compounds read high, GST-tagged Rac1 F28L mutant substrate
The campaign covered roughly 340,000 compounds. About 2,100 (0.62%) were called active. The list is a sample of the results. Potency and affinity values are given separately.
Property label: inhibition (%)

>>> result_value("O=C(CN1C2CCCC1CC(NC(=O)c1ccco1)C2)Nc1ccccc1 (stereo not drawn)")
9.34
>>> result_value("CC(C)c1ccc(NC2CCCN(C(=O)c3cccc(N4CCNC4=O)c3)C2)cc1 (stereo not drawn)")
9.26
>>> result_value("C(=N\\n1cnnc1)/c1ccc(N2CCOCC2)s1")
10.2
>>> result_value("Cc1ccc(C(=O)c2coc3ccc(O)c(Cl)c23)cc1")
16
>>> result_value("COc1ccc(/C=N/NC(=O)c2cccc([N+](=O)[O-])c2)cc1O")
8.06
>>> result_value("Clc1cccc(N/N=C/c2ccc(N3CCOCC3)cc2)c1")
0.9
>>> result_value("O=C(O)c1cc(N/N=C/c2ccc(N3CCOCC3)s2)ccc1Cl")
25.9
>>> result_value("CC(C)(C)OC(=O)N1CCN(C(=O)c2[nH]cnc2C(=O)Nc2ccc(Cl)cc2)CC1")
8.41
